TARGET OR TEST SYSTEM: T1, hFcRn with a His-tag (human, UniProt P55899 24-297; P61769 21-119)
T1 construct: It may be the same product as m1; also called huFcRn (His tagged molecule, BPS); not shown: His-tag
T1 sequence (P55899 24-297 limits assumed, chain 1 of 2): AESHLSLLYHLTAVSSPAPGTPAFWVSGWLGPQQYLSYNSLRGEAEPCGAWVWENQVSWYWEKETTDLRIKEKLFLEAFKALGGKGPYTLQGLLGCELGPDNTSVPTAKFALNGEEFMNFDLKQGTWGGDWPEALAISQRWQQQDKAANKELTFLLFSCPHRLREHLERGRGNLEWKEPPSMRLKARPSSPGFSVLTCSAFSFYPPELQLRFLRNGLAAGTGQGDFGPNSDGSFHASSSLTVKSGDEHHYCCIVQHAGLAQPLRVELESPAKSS
T1 sequence (P61769 21-119 limits assumed, chain 2 of 2): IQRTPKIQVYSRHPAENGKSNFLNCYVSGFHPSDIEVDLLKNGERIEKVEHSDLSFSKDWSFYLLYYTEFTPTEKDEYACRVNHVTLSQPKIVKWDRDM
ASSAY NAME: BLI (Octet), His-hFcRn on Ni-NTA biosensor, Affimer 40 nM, pH 7.4
MEASUREMENT LABEL: Response

- BINDER: "FcRn-48 (designed binder, AFFIMER (stefin A variant)) MIPRGLSEAKPATPEIQEIVDKVKPQLEEKTNETYGKLEAVQYKTQVLAKPKYHHHDISTNYYIKVRAGDNKYMHLKVFNGPGHHAKPHRWADRVLTGYQVDKNKDDELTGFHHHHHH"
  MEASUREMENT LABEL: "Response"
  MEASURED: 0.803
- BINDER: "FcRn-176 (designed binder, AFFIMER (stefin A variant)) MIPRGLSEAKPATPEIQEIVDKVKPQLEEKTNETYGKLEAVQYKTQVLAGRHHESHKSSTNYYIKVRAGDNKYMHLKVFNGPFQHKLHKHHADRVLTGYQVDKNKDDELTGFHHHHHH"
  MEASUREMENT LABEL: "Response"
  MEASURED: 0.595
- BINDER: "FcRn-109 (designed binder, AFFIMER (stefin A variant)) MIPRGLSEAKPATPEIQEIVDKVKPQLEEKTNETYGKLEAVQYKTQVLARPHNRDSHRSTNYYIKVRAGDNKYMHLKVFNGPDRKHRKHWHADRVLTGYQVDKNKDDELTGFHHHHHH"
  MEASUREMENT LABEL: "Response"
  MEASURED: 0.602
- BINDER: "FcRn-88 (designed binder, AFFIMER (stefin A variant)) MIPRGLSEAKPATPEIQEIVDKVKPQLEEKTNETYGKLEAVQYKTQVLAHHTKHHSRWSTNYYIKVRAGDNKYMHLKVFNGPVNHISHAPIADRVLTGYQVDKNKDDELTGFHHHHHH"
  MEASUREMENT LABEL: "Response"
  MEASURED: 0.71
- BINDER: "FcRn-12 (designed binder, AFFIMER (stefin A variant)) MIPRGLSEAKPATPEIQEIVDKVKPQLEEKTNETYGKLEAVQYKTQVLAKVKTHDHQRSTNYYIKVRAGDNKYMHLKVFNGPIHQHHSQDWADRVLTGYQVDKNKDDELTGFHHHHHH"
  MEASUREMENT LABEL: "Response"
  MEASURED: 0.582
- BINDER: "FcRn-16 (designed binder, AFFIMER (stefin A variant)) MIPRGLSEAKPATPEIQEIVDKVKPQLEEKTNETYGKLEAVQYKTQVLAKHHHHKHQHSTNYYIKVRAGDNKYMHLKVFNGPVFLHNESHQADRVLTGYQVDKNKDDELTGFHHHHHH"
  MEASUREMENT LABEL: "Response"
  MEASURED: 0.631
- BINDER: "FcRn-18 (designed binder, AFFIMER (stefin A variant)) MIPRGLSEAKPATPEIQEIVDKVKPQLEEKTNETYGKLEAVQYKTQVLAETPHERHKTSTNYYIKVRAGDNKYMHLKVFNGPKRWLKHHAHADRVLTGYQVDKNKDDELTGFHHHHHH"
  MEASUREMENT LABEL: "Response"
  MEASURED: 0.794
